// provenance: PubChem BioAssay AID1963837

# Tested on: 843126-344-R-J1-PDC complex spheroid viability;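 also: spheroids exposed to drugs for seven days before readout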
# test_details: Anticancer human tumor 843126-344-R-J1-PDC patient-derived melanoma cell line growth inhibition [POLQ]
# condition_parameters: second compound 10 µM; first compound 3.16 µM; active compounds read low
# Protocol: Multicellular complex tumor spheroid response to Polymerase (POL) inhibitors (novobiocin, ART-558, RP6685) in combination with a variety of drugs and investigational agents in selected tumor cell lines The POL inhibitors (novobiocin, ART-558, and RP6685) were evaluated both individually and in combination with standard of care and investigational anticancer small molecules within a complex spheroid model of solid tumors. . […]
reported_property: viability, T/C (%)
Give bare numbers, in %.

Some entries whose results are on file:
Query: # get_value(readout='viability, T/C', item= O=c1[nH]cc(F)c(=O)[nH]1 + Nc1ccc(C#CCN(C(=O)Cc2ncc(C(F)(F)F)cc2C(F)(F)F)c2ccc(F)cc2)nn1 )
Result: 88

Query: Item: C=CC(=O)N1CCN(c2nc(=O)n(-c3c(C)ccnc3C(C)C)c3nc(-c4c(O)cccc4F)c(F)cc23)C(C)C1 (stereo not drawn) + COC1C(OC(N)=O)C(O)C(Oc2ccc3c(O)c(NC(=O)c4ccc(O)c(CC=C(C)C)c4)c(=O)oc3c2C)OC1(C)C
Result: 104

Would you kindly look at the next entry?
Query: Find the recorded viability, T/C belonging to CC1COCCN1c1cc(C2(O)CC3CCC(C2)O3)c2cnn(-c3ccn[nH]3)c2n1 (stereo not drawn) + COC1C(OC(N)=O)C(O)C(Oc2ccc3c(O)c(NC(=O)c4ccc(O)c(CC=C(C)C)c4)c(=O)oc3c2C)OC1(C)C and report it.
Result: 25.6
